Target: N-terminally GST-tagged human full length recombinant Mps-1 kinase (Homo sapiens, UniProt P33981)
Construct: N-terminally GST-tagged human full length recombinant Mps-1 kinase; purchased Invitrogen, Karslruhe, Germany PV4071
Experiment: Mps-1 kinase assay (TR-FRET)
Assay type: biochemical
Conditions: Mps1 IC50 [nM], 10 μM ATP, 1 μM peptide substrate, 60 min at 22° C.
Would you mind telling me the reported IC50 of each entry?
One number for each entry, in nM.

Consider the reported IC50 for these compounds:
1) Cc1cc(F)cc(Sc2cc(NCC(C)(C)O)c3ncc(-c4ccc(C(=O)NC5CC5)c(C)c4)n3n2)c1 [Example 67]
0.1
2) Cc1cc(-c2cnc3c(NCCC(F)(F)F)cc(SC4CCCCC4)nn23)ccc1C(=O)NC1CC1 [Example 171]
0.8
3) Cc1cc(-c2cnc3c(NCC4CCSCC4)cc(Oc4ccccc4F)nn23)ccc1C(=O)NC1CC1 [Example 283]
0.3
4) Cc1ccc(Cc2cc(NCCC(F)(F)F)c3ncc(-c4ccc(C(=O)NC5CC5)c(C)c4)n3n2)cc1F [Example 484]
0.3
5) Cc1cc(-c2cnc3c(NCC(O)C(F)(F)F)cc(Oc4cccc(F)c4)nn23)ccc1C(=O)NC1CC1 (stereo not shown) [Example 486]
0.1
6) CNc1cc(Oc2cccc(F)c2)nn2c(-c3ccc(C(=O)NC4CC4)c(C)c3)cnc12 [Example 510]
0.1

# context switch: different compound, same IC50
(Q) I would be grateful if you could share the reported IC50 for Cc1cc(-c2cnc3c(NCC4CCC(C)(O)CC4)cc(-c4ccccc4CO)nn23)ccc1C(=O)NC1CC1 (stereo not shown) [Example 340] .
(A) 3.3

----------
System: Hepatocytes from Han Wistar rats
Experiment: In vitro metabolic stability in rat hepatocytes (calculation of hepatic in vivo blood clearance and Fmax)
Format: in vitro ADME
Details: maximal oral bioavailability calculated from half-life in rat hepatocytes, 1 μM test compound
Would you mind telling me the reported Fmax [%] of each entry?
One number for each entry, in %.

Consider the reported Fmax [%] for these compounds:
1) Cc1cc(-c2cnc3c(NCCC(F)(F)F)cc(Oc4cccc(F)c4)nn23)ccc1C(=O)NC1(C)CC1 [Example 461]
75
2) Cc1ccc(F)cc1Oc1cc(NCC(C)(C)O)c2ncc(-c3ccc(C(=O)NC4CC4)c(C)c3)n2n1 [Example 391]
47
3) O=C(NC1CC1)c1ccc(-c2cnc3c(NCCC(F)(F)F)cc(Oc4cccc(F)c4)nn23)cc1 [Example 463]
7
4) Cc1cc(-c2cnc3c(NCCC(F)(F)F)cc(Oc4cccc(F)c4)nn23)ccc1C(=O)NC1CC1 [Example 80]
56
5) COCCNc1cc(Oc2cccc(F)c2)nn2c(-c3ccc(C(=O)NC4CC4)c(C)c3)cnc12 [Example 492]
42
6) Cc1cc(-c2cnc3c(NCC4CCOCC4)cc(Oc4cccc(F)c4)nn23)ccc1C(=O)NC1CC1 [Example 323]
31

# context switch: different compound, same Fmax [%]
(Q) I would be grateful if you could share the reported Fmax [%] for COc1ccc(Oc2cc(NCC3CCOCC3)c3ncc(-c4ccc(C(=O)NC5CC5)c(C)c4)n3n2)c(F)c1 [Example 445] .
(A) 61

----------
Biological target: N-terminally GST-tagged human full length recombinant Mps-1 kinase (Homo sapiens)
Construct: N-terminally GST-tagged human full length recombinant Mps-1 kinase; purchased Invitrogen, Karslruhe, Germany PV4071
Sequence (P33981 1-857): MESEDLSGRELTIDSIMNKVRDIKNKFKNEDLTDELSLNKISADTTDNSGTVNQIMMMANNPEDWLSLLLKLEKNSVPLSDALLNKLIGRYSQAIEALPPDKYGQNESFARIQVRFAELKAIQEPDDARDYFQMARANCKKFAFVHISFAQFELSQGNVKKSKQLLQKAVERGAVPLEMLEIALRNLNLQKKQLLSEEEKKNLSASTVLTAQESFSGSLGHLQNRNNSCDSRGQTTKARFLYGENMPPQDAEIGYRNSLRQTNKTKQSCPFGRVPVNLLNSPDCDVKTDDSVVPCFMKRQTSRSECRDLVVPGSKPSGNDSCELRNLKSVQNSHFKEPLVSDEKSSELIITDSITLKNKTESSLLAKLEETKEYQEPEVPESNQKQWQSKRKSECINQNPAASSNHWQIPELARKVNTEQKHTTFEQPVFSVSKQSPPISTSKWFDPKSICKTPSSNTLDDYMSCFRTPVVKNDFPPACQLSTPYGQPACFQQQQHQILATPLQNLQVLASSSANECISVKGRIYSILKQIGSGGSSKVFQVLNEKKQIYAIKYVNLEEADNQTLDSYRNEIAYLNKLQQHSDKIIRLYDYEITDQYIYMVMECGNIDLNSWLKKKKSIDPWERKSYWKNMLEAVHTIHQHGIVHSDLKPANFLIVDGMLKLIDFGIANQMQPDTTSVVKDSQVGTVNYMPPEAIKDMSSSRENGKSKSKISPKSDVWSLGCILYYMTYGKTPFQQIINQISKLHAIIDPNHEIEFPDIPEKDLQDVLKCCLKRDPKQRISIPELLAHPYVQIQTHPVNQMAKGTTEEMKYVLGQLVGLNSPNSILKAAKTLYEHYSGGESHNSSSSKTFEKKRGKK
Assay: Mps-1 kinase assay (TR-FRET)
Assay type: biochemical
Details: Mps1 IC50 [nM], 10 μM ATP, 1 μM peptide substrate, 60 min at 22° C.
MEASURE NAME: IC50

Consider the reported IC50 for these compounds:
1. Cc1cc(-c2cnc3c(NCCN4CCCC4)cc(Oc4cccc(F)c4)nn23)ccc1C(=O)NC1CC1
0.2 nM
2. Cc1cc(-c2cnc3c(NCC(C)(C)O)cc(Oc4ccc(Cl)c(F)c4)nn23)ccc1C(=O)NC1CC1
0.3 nM
3. Cc1cc(-c2cnc3c(NCC4CN(C)CCO4)cc(Sc4ccccc4)nn23)ccc1C(=O)NC1CC1 (racemic)
< 1 nM
4. Cc1ccc(Oc2cc(NCCC(F)(F)F)c3ncc(-c4ccc(C(=O)NC5CC5)c(C)c4)n3n2)cc1
0.2 nM
5. CC=Cc1cc(NCC(C)(C)O)c2ncc(-c3ccc(-c4cnc(C5CC5)[nH]4)cc3)n2n1 (mixture of isomers)
90.5 nM

# batch: return IC50 for each of the 2 compounds below
1. Cc1cc(-c2cnc3c(NCC(C)C)cc(-c4ccn[nH]4)nn23)ccc1C(=O)NC1CC1
2. CCNC(=O)c1ccc(-c2cnc3c(NCCC(F)(F)F)cc(Oc4ccccc4C)nn23)cc1C

(A)
1. 3.2 nM
2. < 1 nM
